experiment: gradient 5% acetonitrile 3 min, to 50% in 2 min, to 85% in 15 min, held 3 min, 100 µL/min; details: column: Zorbax Extend-C18 2.1 x 50 mm; eluents: water / acetonitrile, 0.1% formic acid
Hi! Just check whether RP-LC retention time is below 900 s. Below gives fulfilled, equal or above gives not fulfilled.

molecule	qualitative_label
Cc1ccc(C(C)NC(=O)C2CCN(c3nccnc3Oc3ccccc3)CC2)cc1C (stereo not given)	not fulfilled
O=C(NCCC1=CCCCC1)C1CCN(C(=O)C2Sc3ccccc3NC2=O)CC1 (stereo not given)	fulfilled
CCCn1cc(C(=O)Nc2cccc(C)c2)c(S(=O)(=O)N2CCSCC2)n1	not fulfilled
O=C(Cn1cnc2onc(-c3ccc(F)cc3)c2c1=O)N1CCCc2ccccc21	not fulfilled
O=C(NCC1CCCO1)c1cc(-c2cccs2)nc2ccccc12 (stereo not given)	fulfilled
CC(C)NC(=O)c1ccc(OCC2CCCN(C(=O)c3ccc(C#N)cc3)C2)cc1 (stereo not given)	fulfilled
O=C(C1CCCC1)N1CCC(c2noc(-c3ccncc3)n2)C1 (stereo not given)	fulfilled
CCC1CN(C(=O)Nc2ccc(OC)cc2)c2ccccc2O1 (stereo not given)	not fulfilled
CCCC(=O)N1CC(c2nc(-c3ccc(F)cc3)no2)C2(CCOCC2)C1 (stereo not given)	fulfilled
